- Protocol notes: Area under curve was determined in dog after oral administration at 1 mg/kg
- Format: ADME, organism-based, Canis lupus familiaris
- Parameters: dose 1 mg/kg, route oral
- Condition description: in vivo
Give AUC for every item shown.
The reply should contain only the number, in µM·h.

[in] Would you kindly share the measured AUC for `Cc1cnc(NCCc2ccccc2)c(=O)n1CC(=O)NCc1cc2cc[nH]c2cn1` ?
[out] 15.2

[in] Would you kindly share the measured AUC for `Cc1cnc(NCCc2ccccn2)c(=O)n1CC(=O)NCc1cnc2[nH]ccc2c1` ?
[out] 9.1

[in] Would you kindly share the measured AUC for `Cc1cnc(NCCc2ccccn2)c(=O)n1CC(=O)NCc1cc2cc[nH]c2cn1` ?
[out] 0.17

[in] Would you kindly share the measured AUC for `Cc1nc(N)ccc1CNC(=O)Cn1c(C)cnc(NCCc2ccccc2)c1=O` ?
[out] 23.1
